Experiment: Oral bioavailability in ddY mouse at 3 mg/kg by LC/MS analysis
Assay type: ADME, organism-based
Conditions: in vivo
metric name: bioavailability (%)

>  <compound>
CCc1nnc(-c2ccc(-c3ccccc3)nc2)n1-c1cccc(C#N)c1C (atropisomer R)

>  <metric name>
bioavailability

>  <measurement unit>
%

>  <assay result>
32

$$$$

* * *

Molecular target: Sodium- and chloride-dependent glycine transporter 2 (Rattus norvegicus)
Sequence (P58295 whole entry): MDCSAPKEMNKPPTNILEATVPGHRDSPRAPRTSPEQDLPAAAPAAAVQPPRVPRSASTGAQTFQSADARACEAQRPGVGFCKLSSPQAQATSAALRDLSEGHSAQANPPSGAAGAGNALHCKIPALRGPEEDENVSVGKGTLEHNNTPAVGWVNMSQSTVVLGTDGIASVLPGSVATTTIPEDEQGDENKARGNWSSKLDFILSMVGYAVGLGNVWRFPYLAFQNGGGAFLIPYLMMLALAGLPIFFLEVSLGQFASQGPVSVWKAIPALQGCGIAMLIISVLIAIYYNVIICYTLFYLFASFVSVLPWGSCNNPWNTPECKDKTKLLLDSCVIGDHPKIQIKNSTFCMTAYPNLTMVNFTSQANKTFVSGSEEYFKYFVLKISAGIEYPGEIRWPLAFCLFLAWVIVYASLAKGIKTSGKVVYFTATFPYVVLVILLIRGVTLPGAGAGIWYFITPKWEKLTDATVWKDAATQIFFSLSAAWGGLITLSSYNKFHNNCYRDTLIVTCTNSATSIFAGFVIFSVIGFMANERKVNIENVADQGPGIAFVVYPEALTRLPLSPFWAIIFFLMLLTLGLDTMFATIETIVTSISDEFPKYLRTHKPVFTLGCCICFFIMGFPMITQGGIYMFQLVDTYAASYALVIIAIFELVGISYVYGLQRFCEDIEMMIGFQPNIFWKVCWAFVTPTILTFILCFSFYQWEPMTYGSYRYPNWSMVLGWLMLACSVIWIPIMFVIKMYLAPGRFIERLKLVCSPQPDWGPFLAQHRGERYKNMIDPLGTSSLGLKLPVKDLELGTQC
Assay: Displacement of [3H]glycine from GlyT2 in Wistar rat brainstem cells after 10 mins by scintillation counting analysis
metric name: IC50

>  <molecule smiles>
Cc1nnc(-c2ccc(-c3ccccn3)cc2)n1-c1ccccc1F

>  <assay result>
1.6 µM

$$$$
